# systemName: JAK1 (Homo sapiens (Human), UniProt P23458)
# Sequence (P23458 whole entry): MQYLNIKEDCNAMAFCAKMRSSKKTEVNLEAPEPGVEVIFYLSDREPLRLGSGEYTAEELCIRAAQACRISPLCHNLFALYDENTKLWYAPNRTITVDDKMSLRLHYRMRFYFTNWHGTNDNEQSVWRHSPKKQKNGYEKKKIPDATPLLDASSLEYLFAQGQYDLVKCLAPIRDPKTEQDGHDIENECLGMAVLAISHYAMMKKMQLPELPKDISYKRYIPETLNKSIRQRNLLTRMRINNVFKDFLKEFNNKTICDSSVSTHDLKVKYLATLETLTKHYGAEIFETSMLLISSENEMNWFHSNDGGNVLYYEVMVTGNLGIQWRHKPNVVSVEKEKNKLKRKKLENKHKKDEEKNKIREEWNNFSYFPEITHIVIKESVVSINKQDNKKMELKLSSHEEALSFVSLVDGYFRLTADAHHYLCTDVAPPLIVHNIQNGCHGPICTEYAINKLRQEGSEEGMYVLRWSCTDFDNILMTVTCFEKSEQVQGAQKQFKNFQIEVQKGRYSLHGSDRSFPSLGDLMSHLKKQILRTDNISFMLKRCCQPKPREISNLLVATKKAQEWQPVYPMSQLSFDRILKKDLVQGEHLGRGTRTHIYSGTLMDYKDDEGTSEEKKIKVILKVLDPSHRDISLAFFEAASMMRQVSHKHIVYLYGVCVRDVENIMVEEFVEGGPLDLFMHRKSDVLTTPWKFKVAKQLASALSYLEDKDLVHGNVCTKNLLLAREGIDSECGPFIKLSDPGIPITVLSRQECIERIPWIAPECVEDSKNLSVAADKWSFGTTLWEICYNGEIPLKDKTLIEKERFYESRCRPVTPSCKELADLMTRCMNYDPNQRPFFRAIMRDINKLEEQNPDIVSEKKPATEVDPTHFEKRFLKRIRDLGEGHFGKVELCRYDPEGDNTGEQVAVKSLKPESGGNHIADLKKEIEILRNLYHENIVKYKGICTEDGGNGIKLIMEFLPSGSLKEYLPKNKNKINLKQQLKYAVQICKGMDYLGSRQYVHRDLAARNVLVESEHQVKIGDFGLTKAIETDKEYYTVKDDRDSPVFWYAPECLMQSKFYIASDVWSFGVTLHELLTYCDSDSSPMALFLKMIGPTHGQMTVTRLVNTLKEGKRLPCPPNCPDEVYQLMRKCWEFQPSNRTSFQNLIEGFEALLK
# method: Analysis of JAK1 activity inhibition ability (ADP-Glo Kinase Assay)
# Assay type: biochemical
# testConditions: JAK1 enzyme, ADP-Glo luminescence, ATP 250 uM, IRS-itide substrate, 30° C. 40 minutes; read-out: IC50
parameter: IC50

Reference set, count: 10
O=C(Nc1cc(-c2ccc(CC(=O)N3CCS(=O)(=O)CC3)c(F)c2)c2cc[nH]c2n1)C1CC1 [Example 559] :: 20 to 200 nM
CCCS(=O)(=O)Nc1ccc(-c2cc(NC(=O)C3CC3)nc3[nH]ccc23)cc1CC [Example 126] :: < 20 nM
CC(C)(C)OC(=O)N1CCC(c2cc(NC(=O)C3CC3)nc3[nH]ccc23)C(O)C1 (centres unmarked) [Example 655] :: > 200 nM
O=C(Nc1cc(-c2cnn(C3CNC3)c2)c2cc[nH]c2n1)C1CC1 [Example 600] :: 20 to 200 nM
CC1CN(C(=O)c2c(Cl)cncc2Cl)CC=C1c1cc(NC(=O)C2CC2)nc2[nH]ccc12 (centres unmarked) [Example 374] :: 20 to 200 nM
O=C(Nc1cc(-c2ccc(NS(=O)(=O)CC3CCOC3)cc2)c2cc[nH]c2n1)C1CC1 (centres unmarked) [Example 54] :: < 20 nM
O=C(Nc1cc(-c2ccc(NCC3CCCCC3)cc2)c2cc[nH]c2n1)C1CC1 [Example 471] :: > 200 nM
CS(=O)(=O)CCS(=O)(=O)Nc1ccc(-c2cc(NC(=O)C3CC3)nc3[nH]ccc23)cc1 [Example 56] :: < 20 nM
O=C(Nc1cc(C2=CCN(C(=O)C3CCS(=O)(=O)CC3)CC2)c2cc[nH]c2n1)C1CC1 [Example 249] :: 20 to 200 nM
O=C(Cc1ccc(-c2cc(NC(=O)C3CC3)nc3[nH]ccc23)cc1)NC1CCS(=O)(=O)C1 (centres unmarked) [Example 538] :: 20 to 200 nM

What the record says about CCCn1ccc2c(-c3ccc(NS(=O)(=O)CC)c(F)c3)cc(NC(=O)C3CC3)nc21 [Example 61] : IC50 is > 200 nM

What the record says about C[C@@H]1CN(C2(CC#N)CN(S(=O)(=O)C(F)(F)F)C2)CC=C1c1cc(NC(=O)C2CC2)nc2[nH]ccc12 [Example 628] : IC50 is < 20 nM

What the record says about CC1CN(C(=O)c2ccc3cc[nH]c3c2)CC=C1c1cc(NC(=O)C2CC2)nc2[nH]ccc12 (centres unmarked) [Example 327] : IC50 is 20 to 200 nM

What the record says about COc1ccc(C(=O)N2CC=C(c3cc(NC(=O)C4CC4)nc4[nH]ccc34)C(C)C2)cc1F (centres unmarked) [Example 312] : IC50 is 20 to 200 nM

What the record says about CCCCNC(=S)Nc1ccc(-c2cc(NC(=O)C3CC3)nc3[nH]ccc23)cc1 [Example 463] : IC50 is > 200 nM

What the record says about CC1CC1C(=O)N1CC=C(c2cc(NC(=O)C3CC3)nc3[nH]ccc23)CC1 (centres unmarked) [Example 273] : IC50 is 20 to 200 nM

What the record says about CCCCOc1ccc(-c2cc(NC(=O)C3CC3)nc3[nH]ccc23)cc1 [Example 643] : IC50 is > 200 nM

What the record says about Cn1cncc1S(=O)(=O)Nc1ccc(-c2nc(NC(=O)C3CC3)nc3[nH]ccc23)cc1 [Example 198] : IC50 is > 200 nM

What the record says about CNC(=O)Cc1ccc(-c2cc(NC(=O)C3CC3)nc3[nH]ccc23)cc1 [Example 539] : IC50 is 20 to 200 nM

What the record says about N#CC1(CC(=O)Nc2ccc(-c3cc(NC(=O)C4CC4)nc4[nH]ccc34)cc2)CC1 [Example 241] : IC50 is 20 to 200 nM

What the record says about O=C(Nc1cc(C2=CCN(S(=O)(=O)CC3CCOCC3)CC2)c2cc[nH]c2n1)C1CC1 [Example 169] : IC50 is > 200 nM

What the record says about CC1CN(C(=O)c2cccc(F)c2F)CC=C1c1cc(NC(=O)C2CC2)nc2[nH]ccc12 (centres unmarked) [Example 378] : IC50 is < 20 nM

Values from patent US11524968B2
